Experiment Notes: Oral bioavailability in rat at 10 mg/kg measured after 24 hrs by LC/MS method
Type: ADME, organism-based
Stated Conditions: in vivo

[
  {
    "Compound": "COC(=O)N[C@H](C(=O)N1CCC[C@H]1c1ncc(-c2cc(F)c3c(c2)OC(c2ccc(C4CC4)s2)n2c-3cc3cc(-c4cnc([C@@H]5CCCN5C(=O)[C@@H](NC(=O)OC)C(C)C)[nH]4)ccc32)[nH]1)C(C)C (stereo not given in full)",
    "bioavailability / %": 5
  },
  {
    "Compound": "CCCc1ncc(C2Oc3cc(-c4cnc([C@@H]5CCCN5C(=O)[C@@H](NC(=O)OC)C(C)C)[nH]4)cc(F)c3-c3cc4cc(-c5cnc([C@@H]6CCCN6C(=O)[C@@H](NC(=O)OC)C(C)C)[nH]5)ccc4n32)s1 (stereo not given in full)",
    "bioavailability / %": 7
  },
  {
    "Compound": "CCc1ccc([C@@H]2Oc3cc(-c4cnc([C@@H]5CCCN5C(=O)[C@@H](NC(=O)OC)C(C)C)[nH]4)cc(F)c3-c3cc4cc(-c5cnc([C@@H]6CCCN6C(=O)[C@@H](NC(=O)OC)C(C)C)[nH]5)ccc4n32)s1",
    "bioavailability / %": 3
  },
  {
    "Compound": "COC(=O)N[C@H](C(=O)N1CCC[C@H]1c1ncc(-c2cc(F)c3c(c2)O[C@@H](c2cnc(C4CC4)s2)n2c-3cc3cc(-c4cnc([C@@H]5CCCN5C(=O)[C@@H](NC(=O)OC)C(C)C)[nH]4)ccc32)[nH]1)C(C)C",
    "bioavailability / %": 4
  },
  {
    "Compound": "COC(=O)N[C@H](C(=O)N1CCC[C@H]1c1ncc(-c2cc(F)c3c(c2)OC(c2cnc(C4CC4)s2)n2c-3cc3cc(-c4cnc([C@@H]5C[C@H]6C[C@H]6N5C(=O)[C@@H](NC(=O)OC)C(C)C)[nH]4)ccc32)[nH]1)C(C)C (stereo not given in full)",
    "bioavailability / %": 4
  }
]
